Listed compounds paired with reported electrical conductivity
# Measurement Setup: 328.15 K; 100 kPa; Liquid; Alternating current cell with electrodes

• CCCC[NH3+].O=C[O-] [butylammonium formate] = 0.761 S/m

Which electrical conductivity value is on record for CCC(=O)[O-].CCCC[NH3+] [butylammonium propanoate] ?
0.196 S/m

Please report the recorded electrical conductivity for CCCC(=O)[O-].CCCC[NH3+] [n-butylammonium butanoate] .
0.132 S/m

What value of electrical conductivity has been reported for the following compound? CC(=O)O.CCCCN [butylammonium acetate]
0.244 S/m

###

# Measurement Setup: 313.15 K; Liquid; Maximal bubble pressure
Numbers after ± are expanded uncertainties.
Assay Endpoint: surface tension liquid-gas

Some solved cases for reference:
- CCCC[NH3+].O=C[O-] [butylammonium formate]: 32 ± 0.3 mN/m
- CCCC(=O)[O-].CCCC[NH3+] [n-butylammonium butanoate]: 24.5 ± 0.3 mN/m
- CC(=O)O.CCCCN [butylammonium acetate]: 30.1 ± 0.3 mN/m

Give the measured surface tension liquid-gas of CCC(=O)[O-].CCCC[NH3+] [butylammonium propanoate] .
26.8 ± 0.3 mN/m

###

# Measurement Setup: 308.15 K; Liquid; Maximal bubble pressure
Assay Endpoint: surface tension liquid-gas (mN/m)
Write the answer as a number in mN/m, unit excluded.

Known results for compounds:
* CCCC(=O)[O-].CCCC[NH3+] [n-butylammonium butanoate] | 24.8
* CCCC[NH3+].O=C[O-] [butylammonium formate] | 32.4
* CCC(=O)[O-].CCCC[NH3+] [butylammonium propanoate] | 27.1

Next compound, please.
Give its surface tension liquid-gas value. Item: CC(=O)O.CCCCN [butylammonium acetate]
30.5

###

Catalogue of electrical conductivity values
# Measurement Setup: 333.15 K; 100 kPa; Liquid; Alternating current cell with electrodes
Please append the unit to your numeric answer.

- CC(=O)O.CCCCN [butylammonium acetate]: 0.299 S/m
- CCCC(=O)[O-].CCCC[NH3+] [n-butylammonium butanoate]: 0.159 S/m
- CCCC[NH3+].O=C[O-] [butylammonium formate]: 0.873 S/m

Dear colleague, I am looking for the recorded electrical conductivity of the following molecule: CCC(=O)[O-].CCCC[NH3+] [butylammonium propanoate]
0.234 S/m

###

# Measurement Setup: 333.15 K; 100 kPa; Liquid; Vibrating tube method
± gives the expanded uncertainty stated by the source.
Assay Endpoint: mass density
Give the value; after it, write the unit.

• CCC(=O)[O-].CCCC[NH3+] [butylammonium propanoate] = 909.66 ± 1.8 kg/m3
• CCCC(=O)[O-].CCCC[NH3+] [n-butylammonium butanoate] = 884.61 ± 1.8 kg/m3
• CC(=O)O.CCCCN [butylammonium acetate] = 934.68 ± 1.9 kg/m3

Would you kindly look at the next entry?
Report mass density for CCCC[NH3+].O=C[O-] [butylammonium formate] please.
951.82 ± 1.9 kg/m3

###

Item-by-item account of viscosity
# Measurement Setup: 333.15 K; 100 kPa; Liquid; Capillary tube (Ostwald / Ubbelohde) method
Please give a number only; it is taken to be in mPa·s.

A selection of reference data follows.
- CC(=O)O.CCCCN [butylammonium acetate]: 77.93
- CCCC[NH3+].O=C[O-] [butylammonium formate]: 25.39
- CCCC(=O)[O-].CCCC[NH3+] [n-butylammonium butanoate]: 126.18

Continue with the next compound.
Any idea what viscosity was measured for CCC(=O)[O-].CCCC[NH3+] [butylammonium propanoate] ?
99.35
